Give IC50 for every item shown.
# measured on: CGRP1 receptor (CRLR/RAMP1 complex) of human neuroblastoma SK-N-MC cells (human, UniProt Q16602 23-461; O60894 27-148)
# Sequence (Q16602 23-461, chain 1 of 2): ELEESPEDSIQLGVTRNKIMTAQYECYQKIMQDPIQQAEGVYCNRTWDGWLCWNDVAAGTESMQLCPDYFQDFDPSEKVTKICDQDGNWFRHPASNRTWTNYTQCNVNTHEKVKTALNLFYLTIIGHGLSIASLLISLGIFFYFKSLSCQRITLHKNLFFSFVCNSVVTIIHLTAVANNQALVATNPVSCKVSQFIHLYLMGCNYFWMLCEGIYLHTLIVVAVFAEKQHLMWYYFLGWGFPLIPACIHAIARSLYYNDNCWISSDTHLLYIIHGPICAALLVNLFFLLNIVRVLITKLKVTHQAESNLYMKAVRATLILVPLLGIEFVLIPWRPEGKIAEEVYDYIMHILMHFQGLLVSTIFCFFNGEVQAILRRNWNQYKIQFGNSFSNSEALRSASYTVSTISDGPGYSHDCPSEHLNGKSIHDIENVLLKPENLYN
# Sequence (O60894 27-148, chain 2 of 2): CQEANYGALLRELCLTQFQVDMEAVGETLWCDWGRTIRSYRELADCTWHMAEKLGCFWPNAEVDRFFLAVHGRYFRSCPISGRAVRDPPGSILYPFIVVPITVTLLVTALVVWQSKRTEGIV
# assay: cell-based or functional assay
Numbered stars: 1 amine (or outer) side, 2 acyl side, 3 side chain; on linkers, the order of the positions; unused ones are H or OH. Square brackets hold non-standard residues; d marks the D form. * marks the point of attachment. tetravalent 20 kDa PEG = 20 kDa PEG with four arms, each linked to one peptide copy through Cys; 13C1,2Ac = N-terminal acetyl group labelled with 13C at carbons 1 and 2, [13CH3][13C](=O)*; 15N‑F = phenylalanine labelled with 15N, O=C([C@H](Cc1ccccc1)[15NH][*:1])[*:2]; Cit = NC(=O)NCCC[C@H](N)C(=O)O; 3IPA = not defined here
One number for each entry, in nM.

WVTHXLAGLLSRSGGVVRKNFVPTDVGPFAF (Ac-WVTH[hArg]LAGLLSRSGGVVRK^(20 kDa MeO-PEG)NFVPTDVGPFAF-amide) [SEQ ID NO 789]: 0.36
Ac-WVTHRLAGLLSRPGGVVRKNFVPTDVGPFAF-NH2 [SEQ ID NO 854]: 1.27
Ac-WVTHRLAGLLSRSGGVVRC(30 kDa MeO‑PEG)NFVPTDVGPFAF-NH2 [SEQ ID NO 767]: 7.86

Hi, could you look up IC50 for each item in my list?
1. Ac-WVTHRLAGLLSRSGGVCRNNFVPTDVGPFAF-NH2 [SEQ ID NO 820]
2. Ac-WVTHRLAGLLSQSGGVVRK(20 kDa MeO‑PEG)NFVPTDVGPFAF-NH2 [SEQ ID NO 815]
3. Ac-WVTHRLAGLLSRSGGVVRC(tetravalent 20 kDa PEG)NFVPTDVGPFAF-NH2 (also: tetravalent PEG joins four peptide copies) [SEQ ID NO 782]
4. Ac-WVTHRLAGLAS[Cit]SGGVVRK(MeO‑PEG 20 kDa)NFVPTDVGPFAF-NH2 [SEQ ID NO 851]
5. Ac-WVTHRLAGLLSRSGGVVRC(20 kDa branched MeO‑PEG2)NFVPTDVGPFAF-NH2 [SEQ ID NO 770]
6. Ac-WVTHRLAGLLSASGGVVRC(20 kDa MeO‑PEG)NFVPTDVGPFAF-NH2 [SEQ ID NO 773]
7. Ac-WVTHRLAGLLSRSGGVKRNNFVPTDVGPFAF-NH2 [SEQ ID NO 823]

Result string:
0.36
0.46
0.08
228
0.17
6.2
0.51

Each binder below has a reported value. Please supply its IC50.
1. {13C1,2Ac}-WVTHRLAGLLSRSGGVVRK(20 kDa MeO‑PEG)NFVPTDVGPFA[15N‑F]-NH2 [SEQ ID NO 803]
2. Ac-WVTHRLAGLLSRSGGVVRK(20 kDa MeO‑PEG)NFVPTDVGPFAF-NH2 [SEQ ID NO 809]
3. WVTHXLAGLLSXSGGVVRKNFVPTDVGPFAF (Ac-WVTH[Cit]LAGLLS[Cit]SGG VVRK^(20 kDa MeO-PEG)NFVPTDVGPFAF-amide) [SEQ ID NO 791]
4. Ac-WVTHRLAGLLSQSGGVVRC(20 kDa MeO‑PEG)NFVPTDVGPFAF-NH2 [SEQ ID NO 775]
5. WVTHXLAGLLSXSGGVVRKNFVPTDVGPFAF (Ac-WVTH[hArg]LAGLLS[hArg]SGGVVRK^(20 kDa MeO-PEG)NFVPTDVGPFAF-amide) [SEQ ID NO 785]
6. Ac-WVTHRLAGLLS[dR]SGGVVRC(MeO‑PEG 20 kDa)NFVPTDVGPFAF-NH2 [SEQ ID NO 777]
7. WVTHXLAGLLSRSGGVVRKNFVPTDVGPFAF (Ac-WVTH[hArg]LAGLLSRSGGVVRKNFVPTDVGPFAF-amide) [SEQ ID NO 788]

Result string:
1. 3.28
2. 0.32
3. 3.74
4. 4.69
5. 0.37
6. 19.4
7. 0.44

Provide IC50 for all items below, preserving their order.
1. {Ac-3IPA}-VTHRLAGLLSRSGGVVRC(20 kDa MeO‑PEG)NFVPTDVGPFAF-NH2 (reading uncertain; also: places 3IPA at position 1, printed as Ac-[3IPA]-VTHRLAGLLSRSGGVVRC^(20 kDa MeO-PEG)NFVPTDVGPFAF-amide) [SEQ ID NO 779]
2. Ac-WVTHRLAGLLSQSGGVVRKNFVPTDVGPFAF-NH2 [SEQ ID NO 814]

Result string:
2.22
0.47

Where do these numbers come from? They come from patent US20080020978A1.
